TGT: T1, His-tagged human TIGIT (human, UniProt Q495A1 22-141)
T1 construct: SPR analyte; also called human TIGIT protein; not shown: His tag
T1 sequence: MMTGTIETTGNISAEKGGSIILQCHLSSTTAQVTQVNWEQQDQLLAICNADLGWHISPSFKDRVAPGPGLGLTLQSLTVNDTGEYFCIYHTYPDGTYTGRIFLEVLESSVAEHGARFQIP
ASSAY METHOD TEXT: SPR (Biacore T200), antibody captured, His-tagged TIGIT analyte
koff overview

huTIGIT-19-2 (antibody, human IgG1, kappa, V domains shown, Humanized IgG; also called 19VH4.M9 + 19VL1.M7) VH: QVQLVQSGAEVKKPGASVKVSCKASGYTFTRYSMYWVRQAPGQGLEWIAFIDAYSGGSTYNQRFRGKATLTVDTSISTAYMELSRLRSDDTAVYYCARGGDYGWYLGVWGQGTLVTVSS VL: DIQMTQSPSSLSASVGDRVTITCRASQSIYSYLSWYQQKPGKAPKLLIYNAKSLPSGVPSRFSGSGSGTDFTLTISSLQPEDFATYYCQHHYGNPLTFGQGTKVEIKR ... 0.00021 s⁻¹

Hello, please tell me recorded koff for this one: huTIGIT-19-4 (antibody, human IgG1, kappa, V domains shown, Humanized IgG; also called 19VH4.M10 + 19VL1.M7) VH: QVQLVQSGAEVKKPGASVKVSCKASGYTFTRYSMYWVRQAPGQGLEWIAFIDAYSGGSTYAQKFQGKATLTVDTSISTAYMELSRLRSDDTAVYYCARGGDYGWYLGVWGQGTLVTVSS VL: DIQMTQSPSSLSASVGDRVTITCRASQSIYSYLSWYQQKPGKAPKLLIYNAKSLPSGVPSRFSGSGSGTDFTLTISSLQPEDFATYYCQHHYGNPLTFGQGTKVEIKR 0.00059 s⁻¹

Data credit: patent US20260139048A1
